Measured Binding of serum 2 to linear peptides of Orf14 of SARS-CoV TOR2, listed per entry.
system: serum 2 (individual 2); assay type: binding, human
MEASURED PROPERTY: Binding of serum 2 to linear peptides of Orf14 of SARS-CoV TOR2

[[record]]
macromolecule_sequence = "IQLLAAVGEILLLEW"
result = 0.5

[[record]]
macromolecule_sequence = "LPPCYNFLKEQHCQK"
result = 0.2

[[record]]
macromolecule_sequence = "QHCQKASTQREAEAA"
result = 0.6

[[record]]
macromolecule_sequence = "PLLAPHHVVAVIQEI"
result = 0.4

[[record]]
macromolecule_sequence = "FLKEQHCQKASTQRE"
result = 0.3

[[record]]
macromolecule_sequence = "QEIQLLAAVGEILLL"
result = 0.5

[[record]]
macromolecule_sequence = "VIQEIQLLAAVGEIL"
result = 0.4

[[record]]
macromolecule_sequence = "QLLAAVGEILLLEWL"
result = 0.4

[[record]]
macromolecule_sequence = "AVGEILLLEWLAEVV"
result = 0.5

[[record]]
macromolecule_sequence = "QKASTQREAEAAVKP"
result = 0.4

[[record]]
macromolecule_sequence = "AVIQEIQLLAAVGEI"
result = 1.7

